assay: HepG2 liver cancer cell viability effects, profiling panel, resazurin fluorescence, 24 h, PK04 Diversity Set (AID 1172); conditions: higher = more signal; note: test concentration not given here
Recorded z-score by entry

Example entries and their recorded answers appear below.
COc1cc(OC)c(C(O)C2C=CC3C(=O)N(C)C(=O)C3N2NC(=O)OC(C)(C)C)cc1Br (centres undefined)    -1.88
COC(=O)[C@@]1(Cc2ccccc2)[C@H]2c3cc(C(=O)N(C)C)n(CCc4ccc(O)c(OC)c4)c3C[C@H]2CN1C(=O)c1ccccc1    0.0393
CC1=C([C@H](O)CCc2ccccc2)[C@H](CO)[C@@H]2C(=O)N(C)C(=O)[C@@H]2C1    -0.0457

As a next step, examine the compound that follows.
Summary for this compound, [N-]=[N+]=NCc1ccccc1[C@@H]1OC(c2ccc(OCCCO)cc2)=N[C@]1(CCS(=O)(=O)c1ccccc1)C(=O)NCC(O)CO (some centres undefined) : z-score is -0.618
